# Tested on: concanavalin A-induced lymphoblasts (Con A splenocytes)
# method notes: Lymphoblast viability (LbV) assay
# experimental setup: Con A-stimulated splenocytes (lymphoblasts), MTT
Numbered stars: 1 amine (or outer) side, 2 acyl side, 3 side chain; on linkers, the order of the positions; unused ones are H or OH. Bridge positions count the residues as written; N and C are the ends. Square brackets hold non-standard residues; d marks the D form. Peptide text beside a SMILES is read from it. * marks the point of attachment. X4 = CC[C@H](C)[C@@H](N[*:1])[C@@H](O)CC(=O)O[C@@H](C(C)C)[C@H](O)[C@H](C)C(=O)[*:2]; X1 = CC[C@H](C)[C@@H](N[*:1])[C@@H](O)CC(=O)O[C@H](C(=O)[C@H](C)C(=O)[*:2])C(C)C; NMeY = CN[C@@H](Cc1ccc(O)cc1)C(=O)O; Stearoyl = CCCCCCCCCCCCCCCCCC(=O)*; dNMeL = CN[C@H](CC(C)C)C(=O)O; Lauroyl = CCCCCCCCCCCC(=O)*
Please go through the items and note down their cytotoxicity to lymphocytes LbV, LC50.
The answer is to be given in nM; state only the numeric part.

Lookup result for CCCCCCCCCCCCCCCCCC(=O)N(C)[C@H](CC(C)C)C(=O)N[C@@H]1C(=O)N[C@H]([C@@H](C)CC)[C@@H](O)CC(=O)O[C@@H](C(C)C)C(=O)[C@H](C)C(=O)N[C@@H](CC(C)C)C(=O)N2CCC[C@H]2C(=O)N(C)[C@@H](Cc2ccc(OC)cc2)C(=O)O[C@@H]1C [Compound 25, N^α -Octadecanoyldidemnin A] (Stearoyl-[dNMeL]T[X1]LP[NMeY](Me); ester 2-C) ; measured cytotoxicity to lymphocytes LbV, LC50: 2700

Lookup result for CC[C@H](C)[C@H]1NC(=O)[C@@H](NC(=O)[C@@H](CC(C)C)NC)[C@@H](C)OC(=O)[C@H](Cc2ccc(OC)cc2)N(C)C(=O)[C@@H]2CCCN2C(=O)[C@H](CC(C)C)NC(=O)[C@@H](C)[C@@H](O)[C@H](C(C)C)OC(=O)C[C@@H]1O [Compound 10, [(2S,3R,4S)-H2 Hip^3]Didemnin A] (H-[dNMeL]T[X4]LP[NMeY](Me); ester 2-C) ; measured cytotoxicity to lymphocytes LbV, LC50: 460

Lookup result for CCCCCCCCCCCC(=O)N(C)[C@H](CC(C)C)C(=O)N[C@@H]1C(=O)N[C@H]([C@@H](C)CC)[C@@H](O)CC(=O)O[C@@H](C(C)C)C(=O)[C@H](C)C(=O)N[C@@H](CC(C)C)C(=O)N2CCC[C@H]2C(=O)N(C)[C@@H](Cc2ccc(OC)cc2)C(=O)O[C@@H]1C [Compound 24, N^α -Dodecanoyldidemnin A] (Lauroyl-[dNMeL]T[X1]LP[NMeY](Me); ester 2-C) ; measured cytotoxicity to lymphocytes LbV, LC50: 160

====

Please go through the items and note down their log10(IC50).
# Test system: murine splenocytes (Balb/c and C57B1/6)
# method notes: Two-way mixed lymphocyte reaction (MLR) assay;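 note: proliferation read as tritiated thymidine incorporation into newly made DNA after an overnight pulse, expressed as percent of control activity, IC50 interpolated per compound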
# experimental setup: read-out: two-way mixed lymphocyte reaction (MLR) suppression MLR, IC50; Balb/c + C57B1/6 splenocytes, 96 h, [3H]thymidine
Numbered stars: 1 amine (or outer) side, 2 acyl side, 3 side chain; on linkers, the order of the positions; unused ones are H or OH. Bridge positions count the residues as written; N and C are the ends. Square brackets hold non-standard residues; d marks the D form. Peptide text beside a SMILES is read from it. * marks the point of attachment. X5 = CC[C@@H](C)[C@@H](N[*:1])[C@@H](O)CC(=O)O[C@H](C(=O)[C@H](C)C(=O)[*:2])C(C)C; X1 = CC[C@H](C)[C@@H](N[*:1])[C@@H](O)CC(=O)O[C@H](C(=O)[C@H](C)C(=O)[*:2])C(C)C; NMeY = CN[C@@H](Cc1ccc(O)cc1)C(=O)O; dNMeL = CN[C@H](CC(C)C)C(=O)O; pGlu = O=C1CC[C@@H](C(=O)O)N1; Octanoyl = CCCCCCCC(=O)*; Cbz = O=C(OCc1ccccc1)*; Lac = C[C@H](O)C(=O)O; Propionyl = CCC(=O)*
Please be aware that the numbers have been log10-transformed from IC50 in nM.

Lookup result for CC[C@H](C)[C@H]1NC(=O)[C@@H](NC(=O)[C@@H](CC(C)C)N(C)C(=O)[C@@H]2CCCN2C(=O)[C@H](C)OC(=O)[C@H](CCC(N)=O)NC(=O)[C@H](CCC(N)=O)NC(=O)[C@H](CCC(N)=O)NC(=O)[C@@H]2CCC(=O)N2)[C@@H](C)OC(=O)[C@H](Cc2ccc(OC)cc2)N(C)C(=O)[C@@H]2CCCN2C(=O)[C@H](CC(C)C)NC(=O)[C@@H](C)C(=O)[C@H](C(C)C)OC(=O)C[C@@H]1O [Compound 40, Didemnin D] ([pGlu]QQQ[Lac]P[dNMeL]T[X1]LP[NMeY](Me); ester 8-C) ; measured log10(IC50): -0.92

Lookup result for CC[C@H](C)[C@H]1NC(=O)[C@@H](NC(=O)[C@@H](CC(C)C)N(C)C(=O)[C@H](C)NC(=O)[C@H](C)O)[C@@H](C)OC(=O)[C@H](Cc2ccc(OC)cc2)N(C)C(=O)[C@@H]2CCCN2C(=O)[C@H](CC(C)C)NC(=O)[C@@H](C)C(=O)[C@H](C(C)C)OC(=O)C[C@@H]1O [Compound 35, [L-Ala^8]Didemnin B] ; measured log10(IC50): -0.51

Lookup result for CCC(=O)N1CCC[C@H]1C(=O)N(C)[C@H](CC(C)C)C(=O)N[C@@H]1C(=O)N[C@H]([C@@H](C)CC)[C@@H](O)CC(=O)O[C@@H](C(C)C)C(=O)[C@H](C)C(=O)N[C@@H](CC(C)C)C(=O)N2CCC[C@H]2C(=O)N(C)[C@@H](Cc2ccc(OC)cc2)C(=O)O[C@@H]1C [Compound 32, [Propionyl^9]Didemnin B] (Propionyl-P[dNMeL]T[X1]LP[NMeY](Me); ester 3-C) ; measured log10(IC50): -0.64

Lookup result for CC[C@H](C)[C@H]1NC(=O)[C@@H](NC(=O)[C@@H](CC(C)C)N(C)C(=O)[C@@H]2CCCN2C(=O)C(C)O)[C@@H](C)OC(=O)[C@H](Cc2ccc(OC)cc2)N(C)C(=O)[C@@H]2CCCN2C(=O)[C@H](CC(C)C)NC(=O)[C@@H](C)C(=O)[C@H](C(C)C)OC(=O)C[C@@H]1O (stereo partly drawn) ; measured log10(IC50): -0.38

Lookup result for CC[C@@H](C)[C@H]1NC(=O)[C@@H](NC(=O)[C@@H](CC(C)C)N(C)C(=O)OCc2ccccc2)[C@@H](C)OC(=O)[C@H](Cc2ccc(OC)cc2)N(C)C(=O)[C@@H]2CCCN2C(=O)[C@H](CC(C)C)NC(=O)[C@@H](C)C(=O)[C@H](C(C)C)OC(=O)C[C@@H]1O [Compound 5, Z-[(3S,4R,5R)-Ist^2]Didemnin A] (Cbz-[dNMeL]T[X5]LP[NMeY](Me); ester 2-C) ; measured log10(IC50): -0.55

Lookup result for CCCCCCCC(=O)N(C)[C@H](CC(C)C)C(=O)N[C@@H]1C(=O)N[C@H]([C@@H](C)CC)[C@@H](O)CC(=O)O[C@@H](C(C)C)C(=O)[C@H](C)C(=O)N[C@@H](CC(C)C)C(=O)N2CCC[C@H]2C(=O)N(C)[C@@H](Cc2ccc(OC)cc2)C(=O)O[C@@H]1C [Compound 23, N^α -Octanoyldidemnin A] (Octanoyl-[dNMeL]T[X1]LP[NMeY](Me); ester 2-C) ; measured log10(IC50): 0.71
